Reference for the values: the Biogen ADME set (Fang et al. 2023)

Listed here are compounds together with their documented intrinsic clearance, human liver microsomes.
Please respond with the number in mL/min/kg and leave the unit unwritten.

Sample answers from the record:
{"columns": ["structure.smiles.string", "result.number"],
 "data": [
  ["O=C(CSc1ccc(F)cc1)N1CCCC1", 9.35],
  ["Cc1ccc(-c2cnc(N)cn2)c2cccnc12", 23.1],
  ["COc1ncnc(C)c1-c1cccc(OC(C)C)c1", 63.5],
  ["Cc1csc(CN(C)c2ccnc(N(C)C)n2)n1", 11.8]
]}

Query: Which measured intrinsic clearance, human liver microsomes value corresponds to COCc1nc(-c2cc(F)ccc2F)c(C)s1 ?
Response: 133

* * *

# if value of intrinsic clearance, rat liver microsomes reaches 400 mL/min/kg, tag condition met; if it stays below, tag condition not met

{"columns": ["structure.smiles.string", "class.assignment"],
 "data": [
  ["O=C(Nc1nc(-c2ccccn2)cs1)c1ccc(F)cc1Cl", "condition not met"]
]}

Query: Determine whether measured intrinsic clearance, rat liver microsomes meets or exceeds 400 mL/min/kg for Fc1c(CN2CCC(c3nnc4ccccn34)CC2)cccc1OC1CC1
Response: condition not met

Query: Next molecule up: O=C(CC/C=C/c1ccccc1)Nc1ccccc1N1CCOC1=O
Response: condition met

Query: Further, for Cc1cc(C)cc(OCCN(C)C(=O)NCCS(=O)(=O)N(C)C)c1 ?
Response: condition met

Query: What do we get for CO[C@H]1CC[C@H](C(=O)NC[C@H]2CC[C@H](c3nnc(-c4nccc5ccccc45)o3)CC2)CC1 ?
Response: condition not met

Query: Entry CN1C(=O)c2ccc(C(=O)N3CCN(C4CCCCC4)CC3)cc2C1=O please
Response: condition not met

Query: Param item: CCn1nc(CNC(=O)C2CCOCC2)c2ccccc21
Response: condition not met

Query: Next molecule: O=c1c2ccccc2nc2n1CCN(Cc1ccc(F)cc1)CC2
Response: condition met

Query: Same thing, different molecule: Cc1cn(CCN2CCN(c3ccccc3-c3cc(C#N)cc(C(=O)NCCCN4CCCC4)c3)CC2)c2ccccc12
Response: condition not met

Query: Try the molecule CN(C)CCOc1ccc(-c2nc(-c3ccncc3)c(-c3ccc4c(c3)CC/C4=N\O)[nH]2)cc1
Response: condition not met

Query: Another: CC(=O)N1CCC(Cn2ccnc2-c2cc3ccccc3s2)CC1
Response: condition not met

Query: Subsequent entry: Cn1ccc(NC(=O)[C@H]2CCCCN2C(=O)OC(C)(C)C)n1
Response: condition not met

Query: Same for Nc1nccc2c1ncn2[C@H]1C=C(CO)[C@@H](O)[C@H]1O
Response: condition not met

Query: Could you do the same for CN(C)C(=O)Cn1cc(C(=O)O)ccc1=O , please?
Response: condition not met

Query: Param item: Cc1cc(N(C)C)nc(N(C)Cc2csc(C)n2)n1
Response: condition met

Query: Next: Cn1c(-c2ccccc2)cnc1NCc1ccccc1
Response: condition met

Query: Please give the result for COc1cc(C(C)C)c2c(c1)S(=O)(=O)N(COc1cc(=O)n3cccc(OCCN4CCCCC4)c3n1)C2=O too.
Response: condition not met

Query: Moving on to the next molecule: Cc1nn(Cc2cccc(Br)c2)c(C)c1C(=O)O
Response: condition not met

Query: Query CC1(C)CN(CC(=O)NCC#N)c2cccc(Cl)c21 next
Response: condition met

* * *

Let's look at some molecules and their measured intrinsic clearance, rat liver microsomes.
Use mL/min/kg as the unit, but write only the number.

Query: Please report the recorded intrinsic clearance, rat liver microsomes for N#CCN1CCCN(Cc2ccc(C#N)cc2)CC1 .
Response: 267

Query: Further, for N#Cc1nc(-c2ccccc2)oc1NCc1ccccc1 ?
Response: 2470

Query: Same question for O=C(CCc1cn[nH]c1)NCCCn1cc(Cl)cn1 please.
Response: 27.9

Query: What do you get for COc1cc2c(cc1NC(C)=O)oc1ccccc12 ?
Response: 63.7

Query: Same thing, different molecule: CN(C)c1cc(CNc2ccc(C#N)cn2)ccn1
Response: 94.5

Query: Repeat with O=C(c1ccc(-c2ccncc2)cc1)N1CCC(F)(F)CC1
Response: 43.2

Query: Ok, now COCCNC(=O)CN1CCN(c2nccn2-c2cccc(Cl)c2)CC1
Response: 353

* * *

Checkbox rule: intrinsic clearance, rat liver microsomes lower than 500 mL/min/kg = criterion met; intrinsic clearance, rat liver microsomes not lower than 500 mL/min/kg = criterion not met.

Study these solved cases before continuing.
{"columns": ["structure.smiles.string", "class.assignment"],
 "data": [
  ["CCN1CCN(S(=O)(=O)Cc2ccc(Cl)c(Cl)c2)CC1", "criterion not met"],
  ["O=C(NCCN1CCC(c2ccccc2)CC1)c1ccc2ncsc2c1", "criterion met"]
]}

Query: In the record for O=C(O)/C=C/c1ccc(Cn2ccnc2)cc1 , is intrinsic clearance, rat liver microsomes less than 500 mL/min/kg?
Response: criterion met

Query: Now try CCC(CC)NC(=O)c1cc(C)nc2onc(C)c12 .
Response: criterion met

Query: Also Cc1ccnc(Oc2cc(N)ccc2C)c1 ?
Response: criterion met

Query: Next record, please: CCc1cc(NCc2cccc(OCCOC)c2)ncn1
Response: criterion met

Query: Param item: FC(F)(F)COc1ccc(CN2CCc3c(cnn3-c3ccccc3)C2)nn1
Response: criterion met

Query: What do you get for Cc1c(Cl)ccc2cc3n(c12)[C@@H](C)CNC3=O ?
Response: criterion met

Query: Subsequent entry: COc1ccc2c(c1)CC[C@@H]1[C@@H]2CC[C@]2(C)[C@@H](NCCCCCCN3C(=O)C=CC3=O)CC[C@@H]12
Response: criterion met

Query: Now try COc1ccc(CN2CCC(c3nc(C(C)C)no3)CC2)c(F)c1 .
Response: criterion not met

* * *

As shown below, each of these compounds has a reported intrinsic clearance, human liver microsomes value.
Lab book: enter the figure in mL/min/kg, no units written.

Below, 3 compounds whose answers are already recorded.
{"columns": ["structure.smiles.string", "result.number"],
 "data": [
  ["Cc1nnsc1CN(C)c1ccc2cc[nH]c2n1", 39.3],
  ["Fc1c(CN2CCC(c3nnc4ccccn34)CC2)cccc1OC1CC1", 15],
  ["Cc1cc2nc(CCC(=O)N3CCC(c4ccc(C(=O)N(C)C)c(N)n4)CC3)[nH]c2cc1C", 107]
]}

Query: State the recorded intrinsic clearance, human liver microsomes for this entry: CC(C)c1csc(NC(=O)C2CCN(c3ncccn3)CC2)n1
Response: 44.6

Query: Next entry: Cc1cccc(N(C)Cc2cnc(N(C)C)nc2)n1
Response: 57.7

Query: Moving on to COCC(=O)Nc1ccc(C)c(NC(=O)[C@H](OC)c2ccccc2)c1
Response: 85.2

* * *

Entries and their intrinsic clearance, human liver microsomes values follow.

Query: intrinsic clearance, human liver microsomes; subject: CC#CCCNC(=O)c1cccnc1C
Response: ≤ 4.74 mL/min/kg

Query: Now consider COc1cc(OC)cc(N2CCC(NCC3(C)CCOCC3)CC2)c1 and answer again.
Response: ≤ 4.74 mL/min/kg

Query: Lookup CC1CC1C(=O)N1CCC(n2c(=O)[nH]c3ccccc32)CC1 (stereo unspecified)
Response: ≤ 4.74 mL/min/kg

Query: Record: O=C(NCc1ccc(F)cc1)C1CCN(C(=O)/C=C/c2ccccc2)CC1
Response: ≤ 4.74 mL/min/kg

Query: Would you kindly repeat that for CCC(=O)Nc1sc2c(c1C#N)CCC2 ?
Response: 156 mL/min/kg

Query: Item: CC(C(=O)Nc1ccc(C(N)=O)cc1)N1CCCC(c2nc3ccccc3o2)C1 (stereo unspecified)
Response: 183 mL/min/kg

* * *

Measured fraction unbound, rat plasma, listed per entry.
API note: the answer field is a bare number with no unit suffix.

{"columns": ["compound", "property", "result.number"],
 "data": [
  ["Cc1c(C(=O)NCCCN(C)C)sc2ncnc(Nc3ccc(F)cc3OC(C)C)c12", "fraction unbound, rat plasma", 0.0926]
]}

Query: Fill in: fraction unbound, rat plasma of CC(C)(C=C(C#N)C(=O)N1CCC[C@@H](n2nc(-c3ccc(Oc4ccccc4)cc3F)c3c(N)ncnc32)C1)N1CCN(C2COC2)CC1 is ___
Response: 0.0133

Query: Now the compound Cc1ncc(CN2CCC(Nc3ccc4nnnn4n3)C(C)C2)s1 (stereo not given)
Response: 0.379

* * *

property: log10 intrinsic clearance, human liver microsomes (log10 of the value in mL/min/kg)
// stored as log10 of intrinsic clearance, human liver microsomes expressed in mL/min/kg

Example cases with answers are listed next.
{"columns": ["structure.smiles.string", "result.number"],
 "data": [
  ["N#Cc1ccc2nc(NCCn3ccnc3)ccc2c1", 0.80],
  ["CC1(C)COCCN1Cc1cnn(-c2ccccc2)n1", 1.03],
  ["N#Cc1c(O)nc2scc(-c3ccc(-c4ccccc4O)cc3)c2c1O", 1.05],
  ["Fc1cccc(OC2CCN(Cc3nc4ccccc4[nH]3)CC2)c1", 1.97]
]}

Query: // log10 intrinsic clearance, human liver microsomes lookup, key: O=C(Cc1csc(-c2ccc(F)cc2)n1)N1CCC(n2c(=O)[nH]c3ccccc32)CC1
Response: 2.54

Query: Do the same for O=C(Nc1ccc(F)cc1)c1cc(C2CC2)nn1-c1ccccc1 please
Response: 1.32

Query: Then what about the compound Cc1ccsc1-c1nc(CN(C)CCc2cn[nH]c2)c(C)o1 ?
Response: 2.27
